Target: SMARCA2 (Homo sapiens)
Construct: endogenous in cells
Assay: SMARCA2 Cellular Degradation Assay (Western blot analysis on Jess platform)
Type: cell-based
Settings: cellular degradation
measured.metric: DC50 (nM)

Some entries whose results are on file:
O=C1CC[C@H](c2ccc(N3CCC(CN4CC5(C4)CN(C(=O)C4(c6ccccc6)CCN(c6cnnc(-c7ccccc7O)c6)CC4)C5)CC3)cc2)C(=O)N1 [Example 15] :: 14.8
O=C1CCC(c2ccc(N3CCC4(CC3)COC(CN3CC5(CCN(C(=O)C6(c7ccccc7)CCN(c7cnnc(-c8ccccc8O)c7)CC6)CC5)C3)C4)cc2)C(=O)N1 (racemic) [Example 127] :: 32
O=C1CC[C@H](c2ccc(N3CCC(CN[C@H]4CC[C@H](NC(=O)C5(c6ccccc6)CCN(c6cnnc(-c7ccccc7O)c6)CC5)CC4)CC3)cc2)C(=O)N1 (racemic) [Example 175] :: 29.8
O=C1CCC(c2c(F)cc(N3CCC(CN4CCC5(CC4)CN(C(=O)C4(c6ccccc6)CCN(c6cnnc(-c7ccccc7O)c6)CC4)C5)CC3)cc2F)C(=O)N1 (racemic) [Example 193] :: 1.24
O=C1CC[C@H](n2ccc3cc(N4CCC(CN5CCC(NC(=O)C6(c7ccccc7)CCN(c7cnnc(-c8ccccc8O)c7)CC6)CC5)CC4)ccc3c2=O)C(=O)N1 [Example 157] :: 1.56
CC(C)c1cc(C2(C(=O)N(C)C3CCN(CC4CCN(c5ccc(C6CCC(=O)NC6=O)cc5)CC4)CC3)CCN(c3cnnc(-c4ccccc4O)c3)CC2)no1 (racemic) [Example 98] :: 5.55
C[C@H]1C[C@H](NC(=O)C2(c3ccccc3)CCN(c3cnnc(-c4ccccc4O)c3)CC2)CCN1C(=O)CN1CCC(c2ccc([C@H]3CCC(=O)NC3=O)cc2)CC1 (racemic) [Example 76] :: 9.53

I: CN(C(=O)C1(Oc2ccccc2Cl)CCN(c2cnnc(-c3ccccc3O)c2)CC1)C1CCN(C(=O)CN2CCC(c3ccc([C@@H]4CCC(=O)NC4=O)cc3)CC2)CC1 (racemic) [Example 112]
II: COC1(C(=O)N(C)C2CCN(CCC3CCN(c4cccc5c4n(C)c(=O)n5C4CCC(=O)NC4=O)CC3)CC2)CCN(c2cnnc(-c3ccccc3O)c2)CC1 (racemic) [Example 68]
III: O=C1CC[C@H](c2ccc(N3CCC(CN4CC5(C4)CN(C(=O)C4(C6CC6)CCN(c6cnnc(-c7ccccc7O)c6)CC4)C5)CC3)cc2)C(=O)N1 [Example 24]
IV: CC1(NC(=O)C2(c3ccccc3)CCN(c3cnnc(-c4ccccc4O)c3)CC2)CCN(C(=O)CN2CCC(c3ccc(N[C@@H]4CCC(=O)NC4=O)cc3)CC2)CC1 (racemic) [Example 86]
Query :: # ascending order, key=DC50 Please respond by ranking the labels in the order requested.
Result :: II, I, IV, III
(II: 0.57 nM, I: 4.19 nM, IV: 22.1 nM, III: 62.7 nM)

----------
Target: SMARCA2 (Homo sapiens, UniProt P51531)
Construct: endogenous in cells
Sequence (P51531 whole entry, species assumed): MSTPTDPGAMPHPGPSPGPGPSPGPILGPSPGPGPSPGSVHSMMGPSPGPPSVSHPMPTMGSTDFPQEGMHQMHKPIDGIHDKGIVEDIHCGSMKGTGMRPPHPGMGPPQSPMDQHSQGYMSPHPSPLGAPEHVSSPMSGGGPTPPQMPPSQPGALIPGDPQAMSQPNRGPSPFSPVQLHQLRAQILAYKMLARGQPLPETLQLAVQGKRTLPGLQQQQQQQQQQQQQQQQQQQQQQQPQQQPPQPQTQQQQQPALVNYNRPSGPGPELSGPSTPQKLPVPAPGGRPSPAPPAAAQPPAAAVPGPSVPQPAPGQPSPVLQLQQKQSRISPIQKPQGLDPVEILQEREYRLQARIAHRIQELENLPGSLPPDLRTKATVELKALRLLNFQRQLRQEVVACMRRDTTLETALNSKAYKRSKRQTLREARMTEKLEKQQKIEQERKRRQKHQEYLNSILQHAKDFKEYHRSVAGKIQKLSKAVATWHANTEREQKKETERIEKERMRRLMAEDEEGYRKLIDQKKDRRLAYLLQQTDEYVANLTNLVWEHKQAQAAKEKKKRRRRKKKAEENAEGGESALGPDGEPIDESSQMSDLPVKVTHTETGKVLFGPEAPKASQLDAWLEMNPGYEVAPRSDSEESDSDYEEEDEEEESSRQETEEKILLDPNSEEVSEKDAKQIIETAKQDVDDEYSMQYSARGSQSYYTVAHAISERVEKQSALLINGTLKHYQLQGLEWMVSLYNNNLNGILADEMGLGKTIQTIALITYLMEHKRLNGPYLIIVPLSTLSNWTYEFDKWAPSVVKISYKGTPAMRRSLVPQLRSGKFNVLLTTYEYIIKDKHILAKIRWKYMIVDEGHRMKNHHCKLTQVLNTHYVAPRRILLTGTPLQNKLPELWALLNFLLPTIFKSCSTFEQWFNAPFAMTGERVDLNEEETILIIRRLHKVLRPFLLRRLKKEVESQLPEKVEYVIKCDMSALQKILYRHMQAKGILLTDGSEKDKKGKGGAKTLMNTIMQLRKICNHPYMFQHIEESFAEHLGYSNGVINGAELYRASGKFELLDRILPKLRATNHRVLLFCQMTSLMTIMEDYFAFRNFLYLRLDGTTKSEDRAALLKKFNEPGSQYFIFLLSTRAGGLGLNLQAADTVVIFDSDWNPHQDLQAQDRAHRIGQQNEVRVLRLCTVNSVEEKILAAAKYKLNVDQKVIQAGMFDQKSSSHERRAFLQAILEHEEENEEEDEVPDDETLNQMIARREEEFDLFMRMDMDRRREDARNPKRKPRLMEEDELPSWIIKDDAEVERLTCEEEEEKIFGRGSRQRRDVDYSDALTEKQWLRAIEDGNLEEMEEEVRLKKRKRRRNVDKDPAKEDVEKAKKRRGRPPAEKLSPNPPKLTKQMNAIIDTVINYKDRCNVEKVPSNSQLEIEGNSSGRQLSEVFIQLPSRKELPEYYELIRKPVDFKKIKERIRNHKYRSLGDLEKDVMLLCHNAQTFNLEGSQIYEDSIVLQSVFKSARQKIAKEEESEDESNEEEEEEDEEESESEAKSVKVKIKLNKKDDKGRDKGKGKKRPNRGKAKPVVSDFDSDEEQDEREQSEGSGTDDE
Test: SMARCA2 Cellular Degradation Assay (Western blot analysis on Jess platform)
Format: cell-based
Conditions: cellular degradation
measured.metric: Dmax (%)

COC1(C(=O)N2CCC3(CC2)CN(CC2CCN(c4ccc([C@H]5CCC(=O)NC5=O)cc4)CC2)C3)CCN(c2cnnc(-c3ccccc3O)c2)CC1 :: 78.4
O=C1CCC(c2ccc(N3CCC4(CC3)CC(CN3CC5(CCN(C(=O)C6(c7ccccc7)CCN(c7cnnc(-c8ccccc8O)c7)CC6)CC5)C3)C4)cc2)C(=O)N1 (racemic) :: 66.3
CN(C(=O)C1(Oc2ccccc2Cl)CCN(c2cnnc(-c3ccccc3O)c2)CC1)C1CCN(C(=O)CN2CCC(c3ccc([C@@H]4CCC(=O)NC4=O)cc3)CC2)CC1 (racemic) :: 92
